Exercise: state measured abundance fitness for each of the variants provided.
B1: POU domain, class 4, transcription factor 1, residues 266 to 347; numbered along this chain, Q01851 (parent)
chain: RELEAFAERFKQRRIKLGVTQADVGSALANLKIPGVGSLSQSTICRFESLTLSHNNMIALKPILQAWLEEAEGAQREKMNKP

# Variants of: B1
# TEST_METHOD_NOTES: abundance fitness (aPCA) (normalised: wild type 0, dead -1); higher = more abundant; growth selection in yeast, the domain comes from the species named
# DETAILS: Homo sapiens
Answers are plain numbers.

> print(dat)
   changes            measure  obs.value
1     S40R  abundance fitness     -0.155
2     I33G  abundance fitness     -0.282
3     A66N  abundance fitness     -0.017
4     K32M  abundance fitness      0.018
5     L28M  abundance fitness      -0.09
6     A74V  abundance fitness     -0.005

Provide abundance fitness values for the following items, in order.
1. Q75N
2. S26D
3. K32S
4. M79G

Reply:
-0.061
0.057
0.106
0.009

Provide abundance fitness values for the following items, in order.
1. V24T
2. M79A
3. Q41M
4. W67K
5. A71G
6. L31R
7. V19H

Reply:
1. -0.544
2. 0.004
3. -0.074
4. -0.606
5. -0.379
6. -0.005
7. -0.14

Provide abundance fitness values for the following items, in order.
1. I15L
2. R46C
3. L17T
4. A27I
5. E69R
6. L17M
7. T51D

Reply:
1: -0.022; 2: -0.117; 3: -0.779; 4: -0.245; 5: -0.111; 6: -0.072; 7: 0.034
